experiment: chemical genetic growth profiling, strain panel (AID 1159580);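 note: tested at 20 µM; growth read once vehicle control cultures reached saturation at 30 °C; 1 = growth at the plate median or of vehicle wells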; conditions: S. cerevisiae deletion strains, growth OD, locus YHR079C, strain IRE1, stronger effect = lower value
Screen size: about 5,500 compounds; about 2,000 (36%) were called active. Inconclusive results (about 18%) are left out. This is one part of the list.
Mark Y only for normalized growth values smaller than 1; exact matches and larger values are N.

MOLECULE: CCc1nc(N)nc(N)c1-c1ccc(Cl)cc1
CATEGORY LABEL: N
--
MOLECULE: O=C(O)/C=C/C=C/c1ccc2c(c1)OCO2
CATEGORY LABEL: Y
--
MOLECULE: COc1cccc([C@]2(O)CCCC[C@H]2CN(C)C)c1
CATEGORY LABEL: Y
--
MOLECULE: OCCN(CCO)c1nc(N2CCCCC2)c2nc(N(CCO)CCO)nc(N3CCCCC3)c2n1
CATEGORY LABEL: N
--
MOLECULE: CCCCOc1ccc(C(=O)CCN2CCCCC2)cc1
CATEGORY LABEL: N

Okay, next one:
Strictly below 1 in normalized growth? "O=C(C=C(O)c1ccc(Br)cc1)C(=O)Nc1ccccc1"
Y

====

assay: chemical genetic growth profiling, strain panel (AID 1159580); details: S. cerevisiae deletion strains, growth OD, locus YOR329C, strain SCD5
The whole screen tested about 5,500 compounds, of which about 2,000 (36%) were called active. Not shown: some 18% with an inconclusive outcome. Cut-off read from the data, not from the text of the source: active = normalized growth mostly below about 0.91 (no sharp cut-off); inconclusive = no clear call, values can overlap the other calls; inactive = mostly above about 0.92. This is one part of the list.
Write down the outcome that applies. Available outcomes: yes (active), no (inactive)

Would you please look over these solved cases?
COMPOUND: O=C(Nc1cc(Cl)cc(Cl)c1)Nc1cc(-c2cccs2)[nH]n1
CATEGORY LABEL: no

COMPOUND: N#Cc1c(Cl)c(Cl)c(Cl)c(Cl)c1C#N
CATEGORY LABEL: yes

COMPOUND: NCCCN=c1ccc2c3c1c(O)c1c(O)ccc(=O)c1c3[nH]n2CCNCCO
CATEGORY LABEL: no

COMPOUND: Cc1c(Cl)cccc1NC(=S)N1CCCN(c2ccc(C(F)(F)F)cc2[N+](=O)[O-])CC1
CATEGORY LABEL: no

COMPOUND: C/C(=N/NC(N)=S)c1ccc(Oc2c(Cl)cncc2Cl)cc1
CATEGORY LABEL: no

COMPOUND: CC1=CC(=O)C(CCOCCC2=CC(=O)C(C)=CC2=O)=CC1=O
CATEGORY LABEL: no

COMPOUND: O=C(C=C(O)c1ccc(Br)cc1)C(=O)Nc1ccccc1
CATEGORY LABEL: yes

COMPOUND: CCC(C)c1ccccc1NC(=O)c1cc2cccc([N+](=O)[O-])c2[nH]1 (centres undefined)
CATEGORY LABEL: no

COMPOUND: Cc1ccccc1C(=O)N1CCc2c([nH]c3ccccc23)C1C(F)(F)F (centres undefined)
CATEGORY LABEL: no

COMPOUND: O=C(CCN1CCCCC1)c1ccc(-c2ccccc2)cc1
CATEGORY LABEL: no

Please let me know the test result on file for "O=C(Nc1c(Br)c(C2CC2)nn1-c1ccccc1)C(Cl)(Cl)Cl" .
no

Please let me know the test result on file for "NC(N)=Nc1nc(-c2cc(Cl)sc2Cl)cs1" .
no

Please let me know the test result on file for "Cc1cc(SCc2[nH]nc3oc(=O)cc(C)c23)c(Cl)cc1Cl" .
no

Please let me know the test result on file for "Cn1c([N+](=O)[O-])cnc1/C=C(\C#N)C(=O)Nc1ccc(F)cc1" .
yes

Please let me know the test result on file for "COc1ccc(NC(=O)O/N=C(/N)c2ccc(Oc3c(Cl)cncc3Cl)cc2)cc1" .
no

Please let me know the test result on file for "O=[N+]([O-])c1cc(C(F)(F)F)ccc1-n1ccc(-c2cccs2)n1" .
no

Please let me know the test result on file for "N#C/C(=C\c1ccccc1Sc1ccc(Cl)cc1)S(=O)(=O)c1ccccn1" .
no

Please let me know the test result on file for Cc1oc2c(F)c(F)c(F)c(F)c2c1C(=O)ONC(N)c1ccc(OS(=O)(=O)N(C)C)cc1 (centres undefined) .
no

Please let me know the test result on file for "Cn1cncc1S(=O)(=O)/C(C#N)=C/c1ccccc1Sc1ccc(Cl)cc1" .
no

====

experiment: chemical genetic growth profiling, strain panel (AID 1159580); settings: S. cerevisiae deletion strains, growth OD, locus YDL035C, strain GPR1, stronger effect = lower value
Hit rate of the full screen: of about 5,500 compounds, about 2,000 (36%) were called active. About 18% were inconclusive and are not listed. The list shows a part of the results.
PARAMETER: normalized growth

Some solved cases for reference:
MOLECULE: CN1Cc2c(ccc3c2OCO3)C2C(O)Cc3cc4c(cc3C21)OCO4 (stereo not drawn)
TEST VALUE: 0.985 (inactive)
//
MOLECULE: CN1CCc2cc3c(cc2C1O)OCO3 (stereo not drawn)
TEST VALUE: 0.993 (inactive)

Now take the following molecule into account.
Lab note: measured normalized growth of "CCCCCCCCCCCCC[N+](C)(C)Cc1ccccc1" was 0.0501 (active)

====

experiment: chemical genetic growth profiling, strain panel (AID 1159580);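 note: tested at 20 µM; growth read once vehicle control cultures reached saturation at 30 °C; 1 = growth at the plate median or of vehicle wells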; conditions: S. cerevisiae deletion strains, growth OD, locus YCL016C, strain dcc1
The campaign covered roughly 5,500 compounds. About 2,000 (36%) were called active. Not shown: some 18% with an inconclusive outcome. No stated cut-off is given here; in the data, active means normalized growth mostly below about 0.91 (no sharp cut-off); inconclusive means no clear call, values can overlap the other calls; inactive means mostly above about 0.92. The list shows a part of the results.
Write down the outcome that applies. Available outcomes: active, inactive

Please let me know the test result on file for CC1(C)C2CC[C@]3(C)C(C(=O)C=C4[C@@H]5C[C@@](C)(C(=O)O)CC[C@]5(C)CC[C@]43C)[C@@]2(C)CC[C@@H]1O (stereo partly drawn) .
inactive

Please let me know the test result on file for "N#Cc1c(Cl)c(Cl)c(Cl)c(C#N)c1Cl" .
active

Please let me know the test result on file for CCC(C(=O)O)c1ccccc1 (stereo not drawn) .
inactive

====

Entries and their normalized growth
assay: chemical genetic growth profiling, strain panel (AID 1159580);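 note: tested at 20 µM; growth read once vehicle control cultures reached saturation at 30 °C; 1 = growth at the plate median or of vehicle wells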; details: S. cerevisiae deletion strains, growth OD, locus YMR223W, strain ubp8, stronger effect = lower value
The whole screen tested about 5,500 compounds, of which about 2,000 (36%) were called active. Another 18% or so got no clear call; they are omitted. The list shows a part of the results.
Just the number.

MOLECULE: S=C=NCc1ccccc1
normalized growth: 0.0652

MOLECULE: O[C@H]1C=C2CCN3Cc4cc5c(cc4C(C23)[C@@H]1O)OCO5 (stereo partly specified)
normalized growth: 0.33

MOLECULE: CCCCCC(C)N (stereo unspecified)
normalized growth: 1.02

MOLECULE: CCc1nc(N)nc(N)c1-c1ccc(Cl)cc1
normalized growth: 0.996

Lab note: measured normalized growth of CCC(C(=O)O)c1ccccc1 (stereo unspecified) was 1

Lab note: measured normalized growth of "COc1ccc2c(c1)[C@@]1(C)CCC(=O)C[C@H]1CC2" was 0.98

Lab note: measured normalized growth of CCCCCC(=O)O[C@]1(C(C)=O)CCC2C3CCC4=CC(=O)CC[C@]4(C)C3CC[C@@]21C (stereo partly specified) was 1.01

Lab note: measured normalized growth of COc1cccc2c1CCC1CC(=O)CCC21C (stereo unspecified) was 0.947

Lab note: measured normalized growth of "COc1ccc(C(=O)c2ccccc2)c(O)c1" was 0.774

====

experiment: chemical genetic growth profiling, strain panel (AID 1159580);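 note: tested at 20 µM; growth read once vehicle control cultures reached saturation at 30 °C; 1 = growth at the plate median or of vehicle wells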; details: S. cerevisiae deletion strains, growth OD, locus YDR226W, strain ADK1, stronger effect = lower value
The whole screen tested about 5,500 compounds, of which about 2,000 (36%) were called active. Not shown: some 18% with an inconclusive outcome. The list shows a part of the results.
PARAMETER: normalized growth
Just the number.

MOLECULE: O=C(Oc1cc(Cl)c(Cl)cc1Cl)C1c2ccccc2Oc2ccccc21
normalized growth: 0.963

Lab note: measured normalized growth of CCC(C)c1ccccc1NC(=O)c1cc2cccc([N+](=O)[O-])c2[nH]1 (configuration not stated) was 0.936

Lab note: measured normalized growth of "NC(N)=Nc1nc(-c2cc(Cl)sc2Cl)cs1" was 0.974

Lab note: measured normalized growth of "COc1ccc(NC(=O)O/N=C(/N)c2ccc(Oc3c(Cl)cncc3Cl)cc2)cc1" was 0.965

Lab note: measured normalized growth of "Cc1c(Cl)cccc1NC(=S)N1CCCN(c2nc3ccc(Cl)cc3s2)CC1" was 0.984

Lab note: measured normalized growth of "Cc1c(Cl)cccc1NC(=S)N1CCCN(c2ccc(C(F)(F)F)cc2[N+](=O)[O-])CC1" was 0.987

Lab note: measured normalized growth of "CC1=CC(=O)C(CCOCCC2=CC(=O)C(C)=CC2=O)=CC1=O" was 0.979

Lab note: measured normalized growth of "O=[N+]([O-])c1cc(C(F)(F)F)ccc1-n1ccc(-c2cccs2)n1" was 0.952

Lab note: measured normalized growth of Cc1ccccc1C(=O)N1CCc2c([nH]c3ccccc23)C1C(F)(F)F (configuration not stated) was 0.985

Lab note: measured normalized growth of "CC(C)(C)C1=NN(c2nc3ccc(Cl)cc3s2)C(=O)C1" was 0.898

Lab note: measured normalized growth of Cc1oc2c(F)c(F)c(F)c(F)c2c1C(=O)ONC(N)c1ccc(OS(=O)(=O)N(C)C)cc1 (configuration not stated) was 0.969

Lab note: measured normalized growth of "Cn1c([N+](=O)[O-])cnc1/C=C(\C#N)C(=O)Nc1ccc(F)cc1" was 0.642

Entry source: PubChem BioAssay AID1159580
